- Measured Target: AMPK
- Run Description: AMPK activation, enzyme-linked immunosorbent assay
- Format: biochemical
- Condition Notes: Table 9, compounds of Table 2
Readout Name: EC50

So for O=C(NC1CCN(Cc2cccnc2)CC1)c1ccc2[nH]c3c(c2c1)CN(Cc1ccc(F)cc1)CC3 , the logged EC50 turned out to be 5000 to 10000 nM

Record O=C(NC1CCN(CCc2ccccc2)CC1)c1ccc2[nH]c3c(c2c1)CN(Cc1ccc(C(F)(F)F)cc1)CC3 , field EC50: < 500 nM

Please fill in: EC50 reported for N#Cc1ccc(CN2CCC(NC(=O)c3ccc4[nH]c5c(c4c3)CN(Cc3ccc(C(F)(F)F)cc3)CC5)CC2)cc1 = < 500 nM

EC50 in this record for Cn1c2c(c3cc(C(=O)NC4CCN(Cc5cccnc5)CC4)ccc31)CN(Cc1ccc(C(F)(F)F)cc1)CC2 : 1000 to 5000 nM

// recorded EC50 for O=C(NC1CCN(Cc2cccnc2)CC1)c1ccc2[nH]c3c(c2c1)CN(Cc1ccc(C(F)(F)F)cc1)CC3 : < 500 nM

Reported EC50 of N#Cc1ccc(CN2CCC(NC(=O)c3ccc4[nH]c5c(c4c3)CN(S(=O)(=O)c3cccnc3)CC5)CC2)cc1 : 10000 to 50000 nM

# molecule NC(=O)c1ccc(CN2CCc3[nH]c4ccc(C(=O)NC5CCN(Cc6ccc(F)cc6)CC5)cc4c3C2)cc1 ; its EC50 = > 100000 nM

The reported value for O=C(NC1CCN(Cc2ccncc2)CC1)c1ccc2[nH]c3c(c2c1)CN(Cc1ccc(C(F)(F)F)cc1)CC3 in terms of EC50 is < 500 nM

So for O=C(NC1CCN(Cc2ccc(C(F)(F)F)cc2)CC1)c1ccc2[nH]c3c(c2c1)CN(Cc1ccc(F)cc1)CC3 , the logged EC50 turned out to be 500 to 1000 nM

Looking up Cn1c2c(c3cc(C(=O)NC4CCN(Cc5ccc(C(F)(F)F)cc5)CC4)ccc31)CN(Cc1ccc(C(F)(F)F)cc1)CC2 , I found its EC50 recorded as 500 to 1000 nM

Briefly, EC50 measured for NC(=O)c1ccc(CN2CCc3[nH]c4ccc(C(=O)NC5CCN(C(=O)c6ccncc6)CC5)cc4c3C2)cc1 : > 100000 nM

Form field EC50, entry O=C(NC1CCN(S(=O)(=O)c2cccnc2)CC1)c1ccc2[nH]c3c(c2c1)CN(Cc1ccc(C(F)(F)F)cc1)CC3 : 500 to 1000 nM

Recorded result, NC(=O)c1ccc(CN2CCc3[nH]c4ccc(C(=O)NC5CCN(Cc6ccc(C(F)(F)F)cc6)CC5)cc4c3C2)cc1 , EC50: 10000 to 50000 nM

According to the records, this molecule O=C(NC1CCN(C(=O)c2cccnc2)CC1)c1ccc2[nH]c3c(c2c1)CN(c1ccc(F)cc1)CC3 displays EC50 of > 100000 nM
